# subjectOfTest: T1, recombinant human VEGF165 (human, UniProt P15692 27-191)
# T1 construct: mature; Isoform VEGF165 of the entry; also called hVEGF165; hVEGF
# methodSummary: Biacore SPR, VEGF immobilized, pH 5
observationType: kon (M⁻¹ s⁻¹)
A number alone suffices; assume M⁻¹ s⁻¹.

Consider the reported kon for these binders:
>>> endpointvalue("578-max-min (scFv, also called Protein Nr; 902) scFv: EIVMTQSPSTLSASVGDRVIITCQASEIIHSWLAWYQQKPGKAPKLLIYLASTLASGVPSRFSGSGSGTQFTLTISSLQPDDFATYYCQNVYLASTNGANFGQGTKLTVLGGGGGSGGGGSGGGGSGGGGSEVQLVESGGGLVQPGGSLRLSCAASGFSLTDYYYMTWVRQAPGKGLEWVSFIDPDDDPYYATWAKGRFTISRDNSKNTLYLQMNSLRAEDTAVYYCAKGDHNSGWGLDIWGQGTLVTVSS")
"1.35e+06"
>>> endpointvalue("578min_max T84N (scFv, the VH entry already carries T84N; tied by name; also called Protein Nr) scFv: EIVMTQSPSTLSASVGDRVIITCQASEIIHSWLAWYQQKPGKAPKLLIYLASTLASGVPSRFSGSGSGAEFTLTISSLQPDDFATYYCQNVYLASTNGANFGQGTKLTVLGGGGGSGGGGSGGGGSGGGGSEVQLVESGGGLVQPGGSLRLSCTASGFSLTDYYYMTWVRQAPGKGLEWVGFIDPDDDPYYATWAKGRFTISRDNSKNTVYLQMNSLRAEDTAVYYCAGGDHNSGWGLDIWGQGTLVTVSS")
721000
>>> endpointvalue("511-min (scFv, VL and VH tied by name; also called Protein Nr) scFv: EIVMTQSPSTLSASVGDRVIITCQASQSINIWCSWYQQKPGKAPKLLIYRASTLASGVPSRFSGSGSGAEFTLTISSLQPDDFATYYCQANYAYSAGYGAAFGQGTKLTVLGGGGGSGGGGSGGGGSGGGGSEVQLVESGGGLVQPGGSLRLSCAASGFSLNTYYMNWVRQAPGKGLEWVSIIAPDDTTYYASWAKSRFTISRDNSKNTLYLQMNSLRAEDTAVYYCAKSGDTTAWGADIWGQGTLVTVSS")
505000

Query block: // kon lookup, key: 578minmax (scFv, also called ESBA903; 903) scFv: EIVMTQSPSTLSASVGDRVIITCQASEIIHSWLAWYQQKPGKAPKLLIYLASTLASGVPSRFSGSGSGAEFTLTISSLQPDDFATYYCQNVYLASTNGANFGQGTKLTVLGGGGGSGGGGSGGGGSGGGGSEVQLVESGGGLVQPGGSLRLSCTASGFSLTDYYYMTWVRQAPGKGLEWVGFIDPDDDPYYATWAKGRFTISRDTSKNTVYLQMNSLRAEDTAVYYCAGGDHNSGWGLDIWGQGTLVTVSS
Result block: 806000
